Molecular target: mouse VISTA (mVISTA) (Mus musculus, UniProt Q9D659)
Construct: expressed in transfected cells; host or cells: Human embryonic kidney 293T cells
Sequence (Q9D659 33-308): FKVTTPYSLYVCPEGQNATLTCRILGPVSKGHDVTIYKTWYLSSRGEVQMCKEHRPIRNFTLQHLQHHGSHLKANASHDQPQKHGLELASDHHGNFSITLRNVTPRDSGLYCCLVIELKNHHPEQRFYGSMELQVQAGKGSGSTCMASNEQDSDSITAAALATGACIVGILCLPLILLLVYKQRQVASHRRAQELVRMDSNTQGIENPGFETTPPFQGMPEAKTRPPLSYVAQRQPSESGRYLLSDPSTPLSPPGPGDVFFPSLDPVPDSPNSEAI
Assay: Cell-Based Binding High-Content Assay For mVISTA (HC CBA mVISTA)
Settings: cell-based binding high-content assay; read-out: HC CBA miPrISTA IC50
IC50 for assorted compounds
Give just the number in nM; leave the unit off.

These solved cases illustrate the format of a correct answer.
[Q] Name the reported IC50 value associated with the compound CCCCCCN1CC(=O)N[C@@H](Cc2ccc(O)cc2)C(=O)N[C@@H](CCCC)C(=O)N[C@@H](CC(N)=O)C(=O)N[C@@H](CCCNC(N)=O)C(=O)N2Cc3ccccc3C[C@H]2C(=O)N[C@@H](CCCCC)C(=O)N2CCC[C@H]2C(=O)N[C@@H](C(C)C)C(=O)N[C@@H](CO)C(=O)N[C@H](C(=O)NCCOCCOCC(=O)N[C@@H](CC(=O)O)C(=O)NCCOCCOCC(=O)NCCCCCCCCCCC(=O)O)CSCC(=O)N[C@@H](Cc2ccccc2)C(=O)N[C@@H](Cc2c[nH]c3ccccc23)C(=O)N[C@@H](CC(=O)O)C1=O (stereo in doubt)
[A] 28.4

[Q] Name the reported IC50 value associated with the compound CCCCCCN1CC(=O)N[C@@H](Cc2ccc(O)cc2)C(=O)N[C@@H](CCCC)C(=O)N[C@@H](CC(N)=O)C(=O)N[C@@H](CCCNC(=N)N)C(=O)N(C)[C@@H](CCCC)C(=O)N[C@@H](CCCCC)C(=O)N2CCC[C@H]2C(=O)N[C@@H](C(C)C)C(=O)N[C@@H](CO)C(=O)N[C@H](C(=O)NCCOCCOCC(=O)N[C@@H](CC(=O)O)C(=O)NCCOCCOCC(=O)NCCCCCCCCCCC(=O)O)CSCC(=O)N[C@@H](Cc2ccccc2)C(=O)N[C@@H](Cc2c[nH]c3ccccc23)C(=O)N[C@@H](CC(=O)O)C1=O (stereo in doubt)
[A] 21.3

In the following, a different compound is considered.
[Q] Name the reported IC50 value associated with the compound CCCCCCN1CC(=O)N[C@@H](Cc2ccc(O)cc2)C(=O)N[C@@H](CC(C)C)C(=O)N[C@@H](CC(N)=O)C(=O)N[C@@H](CCCNC(=N)N)C(=O)N[C@@H](CC(C)C)C(=O)N[C@@H](CCCCC)C(=O)N2CCC[C@H]2C(=O)N[C@@H](C(C)C)C(=O)N[C@@H](C(C)C)C(=O)N[C@H](C(=O)NCCOCCOCC(=O)N[C@@H](CC(=O)O)C(=O)NCCOCCOCC(=O)NCCCCCCCCCCC(=O)O)CSCC(=O)N[C@@H](Cc2ccccc2)C(=O)N[C@@H](Cc2ccc(O)cc2)C(=O)N[C@@H](CC(=O)O)C1=O (stereo in doubt)
[A] 17.4

====

Target: mouse VISTA (mVISTA) (Mus musculus)
Construct: expressed in transfected cells; host or cells: Human embryonic kidney 293T cells
Sequence (Q9D659 33-308): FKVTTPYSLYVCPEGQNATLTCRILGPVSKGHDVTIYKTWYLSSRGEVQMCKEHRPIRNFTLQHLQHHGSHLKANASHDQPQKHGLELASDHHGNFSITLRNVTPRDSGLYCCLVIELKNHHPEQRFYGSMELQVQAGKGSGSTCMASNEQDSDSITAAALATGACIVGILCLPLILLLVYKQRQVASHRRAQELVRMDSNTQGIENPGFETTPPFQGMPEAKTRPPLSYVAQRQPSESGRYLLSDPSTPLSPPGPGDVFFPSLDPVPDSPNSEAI
Assay: Cell-Based Binding High-Content Assay For mVISTA (HC CBA mVISTA)
Conditions: read-out: HC CBA mVISTA IC50
From the text: Cell-Based Binding High-Content Assay For mVISTA Human embryonic kidney 293T cells (293T) expressing mouse VISTA (mVISTA) were used for the assessment of compounds competing with the binding of a biotinylated peptide. […] The plates were washed 3 times in dPBS, sealed, and read on a CellInsight NXT High Content Screening Platform IC903000 (Thermo Scientific). […]
Positions of bridges follow the written chain, without caps; N, C: chain ends. Non-standard residues stand in square brackets, D forms with d. Residues, ends and D or L forms follow the SMILES beside them. Phe(3-F) = N[C@@H](Cc1cccc(F)c1)C(=O)O; Cit = NC(=O)NCCC[C@H](N)C(=O)O; NMeL = CN[C@@H](CC(C)C)C(=O)O; Ahp(2) = CCCCC[C@H](N)C(=O)O; NMeNle = CCCC[C@H](NC)C(=O)O; Tle = CC(C)(C)[C@H](N)C(=O)O; NMeS = CN[C@@H](CO)C(=O)O; NHexGly = CCCCCCNCC(=O)O; Nle = CCCC[C@H](N)C(=O)O
Test Readout: IC50 (nM)
Give just the number in nM; leave the unit off.

[Q] Lab note: need IC50 with mouse VISTA (mVISTA) (Mus musculus) for entry CCCCCCN1CC(=O)N[C@@H](Cc2ccc(O)cc2)C(=O)N[C@@H](CC(C)C)C(=O)N[C@@H](CC(N)=O)C(=O)N[C@@H](CCCNC(=N)N)C(=O)N(C)[C@@H](CCCC)C(=O)N[C@@H](CCCCC)C(=O)N2CCC[C@H]2C(=O)N[C@@H](C(C)(C)C)C(=O)N[C@@H](CO)C(=O)N[C@H](C(=O)NCC(N)=O)CSCC(=O)N[C@@H](Cc2ccccc2)C(=O)N[C@@H](Cc2cccc(F)c2)C(=O)N[C@@H](CC(=O)O)C1=O [compound 1341] ({CH2CO}-F[Phe(3-F)]D[NHexGly]YLNR[NMeNle][Ahp(2)]P[Tle]SCG-NH2; thioether N-14) , please look it up.
[A] 19.1

[Q] Lab note: need IC50 with mouse VISTA (mVISTA) (Mus musculus) for entry CCCCCCN1CC(=O)N[C@@H](Cc2ccc(O)cc2)C(=O)N[C@@H](CCCC)C(=O)N[C@@H](CC(N)=O)C(=O)N[C@@H](CCCNC(N)=O)C(=O)N(C)[C@@H](CCCC)C(=O)N[C@@H](CCCCC)C(=O)N2CCC[C@H]2C(=O)N[C@@H](C(C)(C)C)C(=O)N[C@@H](CO)C(=O)N[C@H](C(=O)NCC(N)=O)CSCC(=O)N[C@@H](Cc2ccccc2)C(=O)N[C@@H](Cc2c[nH]c3ccccc23)C(=O)N[C@@H](CC(=O)O)C1=O [Example 1390] ({CH2CO}-FWD[NHexGly]Y[Nle]N[Cit][NMeNle][Ahp(2)]P[Tle]SCG-NH2; thioether N-14) , please look it up.
[A] 25.2

[Q] Lab note: need IC50 with mouse VISTA (mVISTA) (Mus musculus) for entry CCCCCCN1CC(=O)N[C@@H](Cc2ccc(O)cc2)C(=O)N[C@@H](CCCC)C(=O)N[C@@H](CC(N)=O)C(=O)N[C@@H](CCCNC(=N)N)C(=O)N(C)[C@@H](CO)C(=O)N[C@@H](CCCCC)C(=O)N2CCC[C@H]2C(=O)N[C@@H](C(C)C)C(=O)N[C@@H](CC(=O)O)C(=O)N[C@H](C(=O)NCC(=O)O)CSCC(=O)N[C@@H](Cc2ccccc2)C(=O)N[C@@H](Cc2c[nH]c3ccccc23)C(=O)N[C@@H](CC(=O)O)C1=O [Example 1408] ({CH2CO}-FWD[NHexGly]Y[Nle]NR[NMeS][Ahp(2)]PVDCG-OH; thioether N-14) , please look it up.
[A] 20.8

In the following, a different compound is considered.
[Q] Lab note: need IC50 with mouse VISTA (mVISTA) (Mus musculus) for entry CCCCCCN1CC(=O)N[C@@H](Cc2ccc(O)cc2)C(=O)N[C@@H](CCCC)C(=O)N[C@@H](CC(N)=O)C(=O)N[C@@H](CCCNC(=N)N)C(=O)N(C)[C@@H](CC(C)C)C(=O)N[C@@H](CCCCC)C(=O)N2CCC[C@H]2C(=O)N[C@@H](C(C)C)C(=O)N[C@@H](CC(=O)O)C(=O)N[C@H](C(=O)NCC(=O)O)CSCC(=O)N[C@@H](Cc2ccccc2)C(=O)N[C@@H](Cc2c[nH]c3ccccc23)C(=O)N[C@@H](CC(=O)O)C1=O [Example 1369] ({CH2CO}-FWD[NHexGly]Y[Nle]NR[NMeL][Ahp(2)]PVDCG-OH; thioether N-14) , please look it up.
[A] 3.5

Origin of measurements: patent US20240218022A1
